Assay: chemical genetic growth profiling, strain panel (AID 1159580);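 note: tested at 20 µM; growth read once vehicle control cultures reached saturation at 30 °C; 1 = growth at the plate median or of vehicle wells; lower values mean less growth of the strain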
Settings: S. cerevisiae deletion strains, growth OD, locus YML120C, strain ndi1, hits give low values
Screen size: about 5,500 compounds; about 2,000 (36%) were called active. Inconclusive results (about 18%) are left out. The list shows a part of the results.
In this section, each of the compounds is paired with its reported normalized growth.
Please give only the number in your answer, with no unit.

Completed entries (count: 6):
O=C(O)CF; 1.04
CC(C)NCC(O)c1ccc2ccccc2c1 (configuration not stated); 0.991
CC(=O)Nc1ccc(S(=O)(=O)c2ccc(NC(C)=O)cc2)cc1; 1.03
C[C@H]1[C@H]2CCC3C4CC=C5C[C@@H](N(C)C)CC[C@]5(C)C4CC[C@@]32CN1C (some centres not stated); 1.01
CN[C@H](CC(=O)O)C(=O)O; 1.03
O=C(NC(=O)c1c(F)cccc1F)Nc1ccc(Cl)cc1; 1

# next compound below
normalized growth in this record for `C[C@H](N)[C@H](O)c1ccc(O)c(O)c1` : 0.985

###

Experiment: chemical genetic growth profiling, strain panel (AID 1159580);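 note: tested at 20 µM; growth read once vehicle control cultures reached saturation at 30 °C; 1 = growth at the plate median or of vehicle wells; lower values mean less growth of the strain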
Conditions: S. cerevisiae deletion strains, growth OD, locus YIL066C, strain RNR3, hits give low values
The campaign covered roughly 5,500 compounds. About 2,000 (36%) were called active. Not shown: some 18% with an inconclusive outcome. Some of the results follow.
In this section, each of the compounds is paired with its reported normalized growth.
Please give only the number in your answer, with no unit.

normalized growth in this record for `CCN(CC)CCOc1ccc2c(c1)C(=O)c1cc(OCCN(CC)CC)ccc1-2` : 0.99

###

Test: chemical genetic growth profiling, strain panel (AID 1159580);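 note: tested at 20 µM; growth read once vehicle control cultures reached saturation at 30 °C; 1 = growth at the plate median or of vehicle wells; lower values mean less growth of the strain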
Conditions: S. cerevisiae deletion strains, growth OD, locus YGL078C, strain dbp3
Among all 5,500 compounds or so, about 2,000 (36%) were called active. About 18% were inconclusive and are not listed. Rule as the data show it: active = normalized growth mostly below about 0.91 (no sharp cut-off); inconclusive = no clear call, values can overlap the other calls; inactive = mostly above about 0.92. The list shows a part of the results.
Outcomes you can answer with include only these: active, inactive

Example entries and their recorded answers appear below.
C=C(C)[C@H]1CC=C(C(=O)O)CC1; active
CC(=O)NCCCCCC(=O)O; inactive
C[n+]1cccc(C(=O)[O-])c1; inactive
CC1(C)C(O)CC(O)C2(C)C1CC(=O)C1(C)C2CCC2(C)C(C(=O)O)OC(=O)C3OC321 (stereo not given); inactive
CCCC1O[C@@H]2CC3C4CCC5=CC(=O)C=CC5(C)C4[C@@H](O)CC3(C)[C@]2(C(=O)CO)O1 (stereo not given in full); inactive
CCCCC1=NC2(CCCC2)C(=O)N1Cc1ccc(-c2ccccc2-c2nn[nH]n2)cc1; inactive
CC(=O)O[C@H]1C[C@@H](OC(C)=O)C(C)(C)C2C[C@@H](OC(C)=O)[C@@]3(C)C4=CC(=O)O[C@@H](c5ccoc5)[C@]4(C)CCC3[C@]21C (stereo not given in full); inactive
COc1cc2c(c(OC)c1OC)-c1ccc(O)c(=O)cc1[C@@H](NC(C)=O)CC2; inactive

Problem: Assay result, entry O=C1C=CC2=C3c4cc(O)c(O)cc4CC3(O)COC2=C1O (stereo not given) — outcome?
Result: inactive

Problem: Assay result, entry `CC(C)(C)NC[C@@H](O)COc1nsnc1N1CCOCC1` — outcome?
Result: inactive

###

In this section, each of the compounds is paired with its reported normalized growth.
Experiment: chemical genetic growth profiling, strain panel (AID 1159580);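 note: tested at 20 µM; growth read once vehicle control cultures reached saturation at 30 °C; 1 = growth at the plate median or of vehicle wells; lower values mean less growth of the strain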
Details: S. cerevisiae deletion strains, growth OD, locus YNL067W, strain RPL9B, hits give low values
Hit rate of the full screen: of about 5,500 compounds, about 2,000 (36%) were called active. About 18% were inconclusive and are not listed. Some of the results follow.
Please give only the number in your answer, with no unit.

Nc1ccc(S(=O)(=O)Nc2ccccn2)cc1; 1.01

normalized growth in this record for `N[C@@H](Cc1ccc(O)c(O)c1)C(=O)O` : 0.982

normalized growth in this record for CC(=O)O[C@@H]1C[C@@]2(C)[C@H](c3ccoc3)C[C@H]3O[C@]32[C@]2(C)C(=O)C(O)=C3C(C)(C)C(=O)C=C[C@]3(C)C12 (stereo partly specified) : 0.985

normalized growth in this record for `C[C@H](N)[C@H](O)c1ccc(O)c(O)c1` : 1

normalized growth in this record for CC1(C)C(O)CC(O)C2(C)C1CC(O)C1(C)C2CCC2(C)C(c3ccoc3)CC3OC321 (stereo unspecified) : 1

normalized growth in this record for COc1ccccc1OCCNCC(O)COc1cccc2[nH]c3ccccc3c12 (stereo unspecified) : 0.962
